- System: U-251
- experimental.protocol: NCI tumour cell line growth inhibition, 48 h
The source made the active and inactive calls. Rule as the data show it: active = GI50 up to about 1.1 µM and inactive = higher.
measured.parameter: GI50

>>> experimental_value("CSc1nc2c(ncn2C2OC(CO)C(O)C(O)C2O)c(=O)[nH]1 (stereo not given)")
"> 83.8 µM (inactive)"
>>> experimental_value("CC(=O)OC1[C@H](n2ccnc2)C[C@H]2[C@@H]3CC=C4CC(N5CCCC5)CC[C@]4(C)[C@H]3CC[C@]12C (stereo not given in full)")
"55.3 µM (inactive)"
>>> experimental_value("O=C(O)C(Cc1ccc(O)c([N+](=O)[O-])c1)N1C(=O)c2ccccc2C1=O (stereo not given)")
"> 100 µM (inactive)"
>>> experimental_value("CC1=NN(C(=O)CC(=O)Nc2cccc(Cl)c2)C(=O)C1/N=N/c1ccc(C(=O)O)cc1 (stereo not given)")
"> 100 µM (inactive)"
>>> experimental_value("O=C(N/N=C/c1ccc([N+](=O)[O-])cc1)Nc1ccc(C(=O)O)cc1")
"28.2 µM (inactive)"
>>> experimental_value("Cc1cc(NS(=O)(=O)c2ccc(NC(=O)COC(=O)c3cccc4c(=O)c5ccccc5[nH]c34)cc2)no1")
"> 100 µM (inactive)"
>>> experimental_value("O=C(O)CNc1c2ccccc2nc2ccccc12")
"> 100 µM (inactive)"
>>> experimental_value("CCOC(=O)C1(CO)CSCCSC1")
"> 100 µM (inactive)"
>>> experimental_value("O=[N+]([O-])C(=C(Sc1ccccc1)Sc1ccccc1)C(Cl)=C(Cl)Cl")
"1.53 µM (inactive)"
>>> experimental_value("COc1cc(OC)c2c(c1)OC(c1cccnc1)C(c1ccccc1)C2=O (stereo not given)")
"> 100 µM (inactive)"
